Just for reference, patent US20200055939A1 is where these values come from.

Kindly supply the reported Kd values for the records listed here.
Target: T1, MICA002.His (human MICA*002 alpha 3 domain, His tagged) (human)
T1 construct: also called huMICA*002 alpha 3-his
T1 chain: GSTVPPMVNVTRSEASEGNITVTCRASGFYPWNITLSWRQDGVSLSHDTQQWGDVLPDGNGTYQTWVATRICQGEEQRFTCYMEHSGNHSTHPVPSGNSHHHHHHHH
Experiment: SPR, antibody captured;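 also: SPR with antibody held by surface-bound anti-Fc while His-tagged alpha three domains flow over, Kd derived by fitting a one-to-one binding model to sensograms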
Answers are plain numbers, in nM.

Worked cases, answers included:
{"binder": "20G11 (antibody, V domains shown, Mouse hybridoma antibody; constant regions differ by assay) VH: DVQLVESGGGLVQPGGSRKLSCAASGFTFSTFGIHWVRQAPEKGLEWVAYISYDSRTIYYADTVKGRFTISRDNPKNTLFLQMTSLRSEDTAMYYCARWAYEGGVNYFDNWGQGTTLTVSS VL: QIVLTQSPAIMSASLGERVTMTCTATSGVSSSYLHWYQQKPGSSPKLWIYSSSNLASGVPARFSGSGSGTSYSLTIGSMEAEDAATYYCHQFHRSPLTFGTGTKVEIK", "endpoint_unit": "nM", "Kd": 1.76}
{"binder": "6E12.5 (antibody, V domains shown, Mouse hybridoma antibody; constant regions differ by assay) VH: EVQLVESGGGLVKPGGSLKLSCAASGFTFSDYYMYWVRQTPEKRLEWVATISDGITYTYYSDSVRGRFTISRDNAENTLYLQMSSLKSEDTAMYYCSKGGGSTARGALDFWGQGTSVTVSS VL: DIQMNQSPSSLSASLGDTITITCHASQNIHVWLSWYQQKPGNIPKLLIYGASHLHTGVPSRFSGRGSGTGFTLTISSLQPEDIATYYCLQGQSYPLTFGSGTKVEIK", "endpoint_unit": "nM", "Kd": 4.5}
{"binder": "2E5.2.3 (antibody, V domains shown, Mouse hybridoma antibody; constant regions differ by assay) VH: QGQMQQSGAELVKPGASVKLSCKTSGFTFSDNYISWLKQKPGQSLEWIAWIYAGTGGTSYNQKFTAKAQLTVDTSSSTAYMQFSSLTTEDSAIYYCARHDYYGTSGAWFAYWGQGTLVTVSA VL: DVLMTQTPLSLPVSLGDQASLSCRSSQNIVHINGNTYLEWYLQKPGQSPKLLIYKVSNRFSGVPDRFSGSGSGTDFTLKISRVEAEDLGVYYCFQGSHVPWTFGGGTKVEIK", "endpoint_unit": "nM", "Kd": 0.66}

Proceed to the following item.
Task: Look up Kd of 18G3 (antibody, V domains shown, Mouse variable domains; constant regions differ by assay) VH: VQLQESGPGLVKPSQSLSLTCNVTGYSITGDYAWNWIRQFPGNKLEWIGYIGYTGSTTYNPSLKSRVSITRDTSKNQFFLQLNSVTPEDTATYYCARWRNWAMDYWGLGTSVTVSS VL: DIQMTQTPSSLSASLGDRVTISCRANQDISHYLNWYQQKPDGAVKLLIYYTSRIHSGVPSRFSGSGSGTDYSLTIANLEQEDVATYFCQQGNTPPTTFGGGTKVEIK and report it.
Output: 10.4
